System: P388 leukemia ip, CD2F1 mice, survival T/C
TEST_METHOD_NOTES: NCI In Vivo Anticancer Drug Screen. Data for tumor model P388 Leukemia (intraperitoneal) in CD2F1 (CDF1) mice
TEST_CONDITIONS: endpoint: median survival time; dose: 50.0 mg/kg/injection; schedule: Q01DX009 (ip); vehicle: saline; higher = longer survival
Inconclusive results and toxic doses are left out.
ENDPOINT_NAME: T/C

Asked: Which T/C reading was recorded for the compound CCCCC(NC(=O)CCl)C(=O)O (stereo not drawn) ?
Given back: 98 % of control

Asked: Which T/C reading was recorded for the compound Cc1nc(N)c2ncn(C3OC(CO)C(O)C3O)c2n1 (stereo not drawn) ?
Given back: 112 % of control

Asked: Which T/C reading was recorded for the compound CN(C)CCCn1c2ccccc2c2cnccc21 ?
Given back: 100 % of control

Asked: Which T/C reading was recorded for the compound CN1[C@@H](CC(=O)c2ccccc2)CCC[C@H]1CC(=O)c1ccccc1 ?
Given back: 103 % of control

Asked: Which T/C reading was recorded for the compound NC1(C(=O)O)CCCC1C(=O)O (stereo not drawn) ?
Given back: 99 % of control

Asked: Which T/C reading was recorded for the compound O=P1(NCCCl)OCCCN1CCCl (stereo not drawn) ?
Given back: 270 % of control

Asked: Which T/C reading was recorded for the compound Cc1nc(Sc2nc3ccc([N+](=O)[O-])cc3s2)sc1C ?
Given back: 87 % of control

Asked: Which T/C reading was recorded for the compound CCc1nn(CCCN2CCN(c3cccc(Cl)c3)CC2)c(=O)n1CC ?
Given back: 114 % of control

Asked: Which T/C reading was recorded for the compound Cc1ccc(CCn2c3c(c4cc(Cl)ccc42)CN(C)CC3)cn1 ?
Given back: 99 % of control

Asked: Which T/C reading was recorded for the compound CCCCCCOC(=O)C1=C(NC)CCC1 ?
Given back: 106 % of control

Asked: Which T/C reading was recorded for the compound OC1CC2CC1CC2O (stereo not drawn) ?
Given back: 101 % of control

Asked: Which T/C reading was recorded for the compound Cc1cc(Br)c(OC(=O)Nc2cccc(Cl)c2Cl)cc1C ?
Given back: 119 % of control

Asked: Which T/C reading was recorded for the compound NCC(=O)c1ccc(O)c(O)c1 ?
Given back: 113 % of control

----------
System: P388 leukemia ip, CD2F1 mice, survival T/C
TEST_METHOD_NOTES: NCI In Vivo Anticancer Drug Screen. Data for tumor model P388 Leukemia (intraperitoneal) in CD2F1 (CDF1) mice
TEST_CONDITIONS: endpoint: median survival time; dose: 30.0 mg/kg/injection; schedule: Q01DX005 (ip); vehicle: saline
Inconclusive results and toxic doses are left out. The calls were made as follows: active = survival T/C of 150% or more; inactive = T/C below 125% in these data.
Your answer must be one of the following: class 1 = active, class 0 = inactive

Asked: Give the logged outcome of this assay for the following compound: CC1CC(C)N(C)C(C)C1 (stereo unspecified)
Given back: class 0

Asked: Give the logged outcome of this assay for the following compound: COc1ccc(SC(N(C)C)=[N+](C)C)cc1
Given back: class 0

Asked: Give the logged outcome of this assay for the following compound: CN=C(N)c1ccc(N=C(N)c2ccc(C(N)=Nc3ccc(C(N)=NC)cc3)cc2)cc1
Given back: class 1

Asked: Give the logged outcome of this assay for the following compound: CCCCCCC(=O)CC(SCCN)c1ccccc1Cl (stereo unspecified)
Given back: class 0

Asked: Give the logged outcome of this assay for the following compound: CN1C2CCC1CC(Cl)C2 (stereo unspecified)
Given back: class 0

Asked: Give the logged outcome of this assay for the following compound: CC1(C)NC(=O)N(CN2CCOCC2)C1=O
Given back: class 0

----------
System: P388 leukemia ip, CD2F1 mice, survival T/C
TEST_METHOD_NOTES: NCI In Vivo Anticancer Drug Screen. Data for tumor model P388 Leukemia (intraperitoneal) in CD2F1 (CDF1) mice
TEST_CONDITIONS: endpoint: median survival time; dose: 50.0 mg/kg/injection; schedule: Q01DX009 (ip); vehicle: saline with Tween-80; higher = longer survival
Inconclusive results and toxic doses are left out.
I'd be grateful if you could share measured T/C for these entries.

Asked: Lab note: need T/C with P388 leukemia ip, CD2F1 mice, survival T/C for entry NS(=O)(=O)c1cc([N+](=O)[O-])ccc1Cl , please look it up.
Given back: 100 % of control

Asked: Lab note: need T/C with P388 leukemia ip, CD2F1 mice, survival T/C for entry c1ccc2c(Cc3nn[nH]n3)noc2c1 , please look it up.
Given back: 109 % of control

Asked: Lab note: need T/C with P388 leukemia ip, CD2F1 mice, survival T/C for entry CC(=O)N(O)C1CCCCC1 , please look it up.
Given back: 101 % of control

Asked: Lab note: need T/C with P388 leukemia ip, CD2F1 mice, survival T/C for entry c1ccc2c3cc(cc2c1)OCCOCCOCCOCCOCCOc1ccc2ccccc2c1-3 , please look it up.
Given back: 101 % of control

Asked: Lab note: need T/C with P388 leukemia ip, CD2F1 mice, survival T/C for entry O=C(O)CCCOC(C[N+](=O)[O-])C(Cl)(Cl)Cl (centres undefined) , please look it up.
Given back: 95 % of control

Asked: Lab note: need T/C with P388 leukemia ip, CD2F1 mice, survival T/C for entry Cc1cc(N)c(C)c(C)c1O , please look it up.
Given back: 118 % of control

Asked: Lab note: need T/C with P388 leukemia ip, CD2F1 mice, survival T/C for entry O=S(=O)(O)c1cccc(/C(=N\Nc2ccccn2)c2ccccn2)c1 , please look it up.
Given back: 100 % of control

Asked: Lab note: need T/C with P388 leukemia ip, CD2F1 mice, survival T/C for entry CCOC(=O)C(C)(Br)C(=O)OCC , please look it up.
Given back: 109 % of control

Asked: Lab note: need T/C with P388 leukemia ip, CD2F1 mice, survival T/C for entry CCN(CC)c1cc(-c2ccccc2)oc(=O)c1Cl , please look it up.
Given back: 100 % of control

Asked: Lab note: need T/C with P388 leukemia ip, CD2F1 mice, survival T/C for entry O=[N+]([O-])c1ccc2c(ccn2C2OCC(O)C(O)C2O)c1 (centres undefined) , please look it up.
Given back: 94 % of control

Asked: Lab note: need T/C with P388 leukemia ip, CD2F1 mice, survival T/C for entry OCC1OC(n2ncc3ccccc32)C(O)C1O (centres undefined) , please look it up.
Given back: 106 % of control

Asked: Lab note: need T/C with P388 leukemia ip, CD2F1 mice, survival T/C for entry CC(=O)Nc1nc(N)nc2c1CC(N(Cc1ccc(Cl)cc1)C(C)=O)CC2 (centres undefined) , please look it up.
Given back: 108 % of control

Asked: Lab note: need T/C with P388 leukemia ip, CD2F1 mice, survival T/C for entry CC1(C)C2CCC(C2)C1C(=O)CCN1CCc2ccccc2C1 (centres undefined) , please look it up.
Given back: 107 % of control

Asked: Lab note: need T/C with P388 leukemia ip, CD2F1 mice, survival T/C for entry COC(=O)C=P(c1ccccc1)(c1ccccc1)c1ccccc1 , please look it up.
Given back: 100 % of control

Asked: Lab note: need T/C with P388 leukemia ip, CD2F1 mice, survival T/C for entry c1ccc2[nH]c(N=Nc3cccc4ccccc34)cc2c1 , please look it up.
Given back: 99 % of control

Asked: Lab note: need T/C with P388 leukemia ip, CD2F1 mice, survival T/C for entry CN(C)C1CCc2[nH]c3c(F)cc(F)cc3c2C1 (centres undefined) , please look it up.
Given back: 102 % of control

Asked: Lab note: need T/C with P388 leukemia ip, CD2F1 mice, survival T/C for entry Clc1ccc(CSCc2c(CSCc3ccc(Cl)cc3)c(CSCc3ccc(Cl)cc3)c(CSCc3ccc(Cl)cc3)c(CSCc3ccc(Cl)cc3)c2CSCc2ccc(Cl)cc2)cc1 , please look it up.
Given back: 102 % of control

Asked: Lab note: need T/C with P388 leukemia ip, CD2F1 mice, survival T/C for entry CCCOC(=O)c1nc(N(CC2CCCCC2)C(=O)NC)sc1/N=C/c1ccccc1 , please look it up.
Given back: 94 % of control

Asked: Lab note: need T/C with P388 leukemia ip, CD2F1 mice, survival T/C for entry CC1(c2ccc(-c3ccccc3)cc2)NC(=O)NC1=O (centres undefined) , please look it up.
Given back: 86 % of control

Asked: Lab note: need T/C with P388 leukemia ip, CD2F1 mice, survival T/C for entry O=[N+]([O-])c1ccc(Sc2ccncn2)c([N+](=O)[O-])c1 , please look it up.
Given back: 123 % of control

Asked: Lab note: need T/C with P388 leukemia ip, CD2F1 mice, survival T/C for entry CSc1nc2ccccc2[nH]1 , please look it up.
Given back: 110 % of control

Asked: Lab note: need T/C with P388 leukemia ip, CD2F1 mice, survival T/C for entry CC(=O)OC(CCl)C1OC(CCl)C(OC(C)=O)O1 (centres undefined) , please look it up.
Given back: 103 % of control

Asked: Lab note: need T/C with P388 leukemia ip, CD2F1 mice, survival T/C for entry Cn1nnc2c1C(=O)c1ccccc1C2=O , please look it up.
Given back: 106 % of control

Asked: Lab note: need T/C with P388 leukemia ip, CD2F1 mice, survival T/C for entry Cc1cccc(-n2c(-c3ccc([N+](=O)[O-])cc3)csc2=NC(=O)c2cccc([N+](=O)[O-])c2)c1C , please look it up.
Given back: 91 % of control
